biological target: Hexokinase-4 (Homo sapiens, UniProt P35557); assay: Activation of recombinant human pancreatic glucokinase using 10 mM glucose by spectrophotometry
Sequence (P35557 whole entry): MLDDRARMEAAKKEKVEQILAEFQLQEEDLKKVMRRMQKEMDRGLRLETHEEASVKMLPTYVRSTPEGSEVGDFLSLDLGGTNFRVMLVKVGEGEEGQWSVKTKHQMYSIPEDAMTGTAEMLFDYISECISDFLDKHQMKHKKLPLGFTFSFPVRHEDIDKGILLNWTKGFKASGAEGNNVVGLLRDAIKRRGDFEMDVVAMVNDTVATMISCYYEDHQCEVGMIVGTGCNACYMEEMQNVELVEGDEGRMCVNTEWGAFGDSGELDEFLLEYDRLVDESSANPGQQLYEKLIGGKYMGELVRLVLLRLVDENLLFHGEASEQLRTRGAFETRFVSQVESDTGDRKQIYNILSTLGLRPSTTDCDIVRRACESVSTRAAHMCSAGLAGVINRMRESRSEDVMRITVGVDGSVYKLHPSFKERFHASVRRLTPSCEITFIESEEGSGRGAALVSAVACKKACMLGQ
attribute measured: pEC50
pEC50 (log units): -log10 of the concentration in mol/L.

| record smiles | pEC50 |
| --- | --- |
| COCCN(C)Cc1csc(NC(=O)c2cc(Oc3ccc(S(C)(=O)=O)cc3)cc(-c3ncccc3C)c2)n1 | 5.13 |

Shifting focus to the molecule that follows.
Tell me the measured pEC50 of CCNC(=O)Cc1csc(NC(=O)c2cc(Oc3ccc(S(C)(=O)=O)cc3)cc(-c3ncccc3C)c2)n1 , please.
8.30

----------
experiment: Tmax in female Sprague-Dawley rat at 500 mg/kg, po measured on day 14; format: ADME, organism-based; set-up: dose 500 mg/kg, route oral; details: in vivo
attribute measured: Tmax (h)
Quick note: give the figure in h, leave out the unit.

Tell me the measured Tmax of COCCOCn1ccc(NC(=O)c2cc(Oc3ccc(S(C)(=O)=O)cc3)cc(-c3ncccc3C)c2)n1 , please.
1.3

----------
assay: Tmax in male Sprague-Dawley rat at 250 mg/kg, po measured on day 1; assay type: ADME, organism-based; parameters: dose 250 mg/kg, route oral; conditions: in vivo
attribute measured: Tmax (h)
Quick note: give the figure in h, leave out the unit.

Tell me the measured Tmax of COCCOCn1ccc(NC(=O)c2cc(Oc3ccc(S(C)(=O)=O)cc3)cc(-c3ncccc3C)c2)n1 , please.
2.7

----------
experiment: Elimination half life in ICR mouse at 3 mg/kg, iv and 10 mg/kg, po; assay type: ADME, organism-based; details: in vivo, read-out: beta t1/2 (converted)
attribute measured: half-life (h)
Quick note: give the figure in h, leave out the unit.

Tell me the measured half-life of COCCOCn1ccc(NC(=O)c2cc(Oc3ccc(S(C)(=O)=O)cc3)cc(-c3ncccc3C)c2)n1 , please.
1.4

----------
Parameter EC50: see the listing below.
biological target: Hexokinase-4 (Homo sapiens); assay: Activation of recombinant human pancreatic glucokinase using 10 mM glucose by spectrophotometry
Quick note: give the figure in nM, leave out the unit.

Examples with their reported EC50 follow.
| record smiles | assayed system | val |
| --- | --- | --- |
| C#CCNCc1csc(NC(=O)c2cc(Oc3ccc(S(C)(=O)=O)cc3)cc(-c3ncccc3C)c2)n1 | Hexokinase-4 (Homo sapiens) | 106 |
| Cc1cccnc1-c1cc(Oc2ccc(S(C)(=O)=O)cc2)cc(C(=O)Nc2ccn(CCN3CCOCC3)n2)c1 | Hexokinase-4 (Homo sapiens) | 441 |
| Cc1cccnc1-c1cc(Oc2ccc(S(C)(=O)=O)cc2)cc(C(=O)Nc2ncc(F)s2)c1 | Hexokinase-4 (Homo sapiens) | 238 |
| Cc1cccnc1-c1cc(Oc2ccc(S(C)(=O)=O)cc2)cc(C(=O)Nc2nc(CN3CCOCC3)cs2)c1 | Hexokinase-4 (Homo sapiens) | 212 |
| COCCN(CCOC)Cc1csc(NC(=O)c2cc(Oc3ccc(S(C)(=O)=O)cc3)cc(-c3ncccc3C)c2)n1 | Hexokinase-4 (Homo sapiens) | 2430 |

Shifting focus to the compound that follows.
API: value(readout= EC50, system= Hexokinase-4 (Homo sapiens), query= Cc1cccnc1-c1cc(Oc2ccc(S(C)(=O)=O)cc2)cc(C(=O)Nc2nccs2)c1 )
95

----------
experiment: Tmax in male Sprague-Dawley rat at 1000 mg/kg, po measured on day 14; type: ADME, organism-based; set-up: dose 1000 mg/kg, route oral; details: in vivo
attribute measured: Tmax (h)
Quick note: give the figure in h, leave out the unit.

Tell me the measured Tmax of COCCOCn1ccc(NC(=O)c2cc(Oc3ccc(S(C)(=O)=O)cc3)cc(-c3ncccc3C)c2)n1 , please.
5
